Target: 72 kDa type IV collagenase (Homo sapiens, UniProt P08253)
Sequence (P08253 whole entry): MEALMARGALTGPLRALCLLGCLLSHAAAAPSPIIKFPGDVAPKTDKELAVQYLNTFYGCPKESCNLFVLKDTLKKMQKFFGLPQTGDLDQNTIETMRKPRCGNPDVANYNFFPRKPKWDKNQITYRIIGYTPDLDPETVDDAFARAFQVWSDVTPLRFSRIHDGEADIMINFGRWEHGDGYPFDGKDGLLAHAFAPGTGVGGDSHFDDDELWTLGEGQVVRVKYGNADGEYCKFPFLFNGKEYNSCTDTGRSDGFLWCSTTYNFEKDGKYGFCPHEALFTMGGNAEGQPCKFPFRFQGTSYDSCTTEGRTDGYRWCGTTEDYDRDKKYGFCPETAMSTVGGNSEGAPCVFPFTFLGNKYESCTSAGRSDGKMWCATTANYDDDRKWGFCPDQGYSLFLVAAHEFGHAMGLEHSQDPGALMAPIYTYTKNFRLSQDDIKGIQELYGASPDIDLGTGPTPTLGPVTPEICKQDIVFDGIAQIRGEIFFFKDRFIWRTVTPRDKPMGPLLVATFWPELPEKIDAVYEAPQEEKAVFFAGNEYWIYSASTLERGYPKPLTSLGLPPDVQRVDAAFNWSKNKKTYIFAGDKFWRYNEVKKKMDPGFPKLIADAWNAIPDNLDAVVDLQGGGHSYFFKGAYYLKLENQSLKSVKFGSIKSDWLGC
Readout Name: IC50 (nM)
Numbers only, in nM.

Prompt line: I'd like to know its IC50. The molecule in question is `CC(C)C[C@H](C(=O)NO)N(Cc1ccccc1)[P@](C)(=O)c1ccccc1`
Response line: 13.3

---

Would you mind telling me the reported pIC50 of each entry?
Target: Matrilysin (Homo sapiens)
Sequence (P09237 whole entry): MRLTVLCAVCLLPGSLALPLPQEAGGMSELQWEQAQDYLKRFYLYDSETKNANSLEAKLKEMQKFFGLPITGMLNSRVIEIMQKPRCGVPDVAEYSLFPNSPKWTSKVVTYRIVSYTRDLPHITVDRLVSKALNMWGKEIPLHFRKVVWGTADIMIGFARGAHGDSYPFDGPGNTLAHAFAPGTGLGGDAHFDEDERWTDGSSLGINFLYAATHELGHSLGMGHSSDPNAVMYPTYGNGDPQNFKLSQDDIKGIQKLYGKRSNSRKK
One number for each entry, as −log10 of the molar value.

Prompt line: I'd like to know its pIC50. The compound in question is `C[C@H](C(=O)NO)N(Cc1ccccc1)[P@](C)(=O)c1ccccc1`
Response line: 5.73

// moving on: another record for pIC50
Prompt line: I'd like to know its pIC50. The compound in question is `CC(C)C[C@H](C(=O)NO)N(Cc1ccccc1)[P@](C)(=O)c1ccccc1`
Response line: 6.05
